target: Hck (UniProt P08631); assay: phosphorylation enrichment, bacterial display (enrichment ratio); higher = better substrate or ligand; peptides without Tyr show the background
Sequence (P08631 whole entry, looked up): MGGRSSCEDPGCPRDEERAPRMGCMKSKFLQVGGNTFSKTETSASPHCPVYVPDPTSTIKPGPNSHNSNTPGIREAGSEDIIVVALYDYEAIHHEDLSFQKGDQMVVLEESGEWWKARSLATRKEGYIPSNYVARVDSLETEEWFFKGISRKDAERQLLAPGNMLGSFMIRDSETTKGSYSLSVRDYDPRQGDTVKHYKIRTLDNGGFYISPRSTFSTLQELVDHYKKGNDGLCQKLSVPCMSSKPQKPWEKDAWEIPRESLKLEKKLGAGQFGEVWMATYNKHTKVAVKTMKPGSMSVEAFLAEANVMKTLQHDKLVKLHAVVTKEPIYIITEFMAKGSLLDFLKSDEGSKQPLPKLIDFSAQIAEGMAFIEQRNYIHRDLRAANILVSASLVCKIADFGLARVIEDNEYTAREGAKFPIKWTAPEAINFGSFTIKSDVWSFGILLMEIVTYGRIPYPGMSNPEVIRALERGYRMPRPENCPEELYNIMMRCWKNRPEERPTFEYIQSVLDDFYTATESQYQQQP
# phosphorylation enrichment per record follows
Write the number on its own, no unit after it.

1) EVQKDYEHLFK [PAM16_Y77_N76D]; 0.514
2) GNHISYFQSDG [CACNA1C_Y1757_V1755I_YF]; 0.392
3) LNLKEYNLVGG [GNAQ_Y356]; 0.485
4) LARDIYKNDYY [ROS1_Y2110]; 0.712
5) CTHDLYMIMRE [FGFR3_Y724]; 0.971
6) KKLHKYNTQFQ [PIK3R1_Y452_E451K]; 0.425

Report phosphorylation enrichment for FTAVGYHKHIT [NOMO1_Y1137] please.
0.482

Report phosphorylation enrichment for RSFPSYFTSHV [NEFL_Y442_YF] please.
0.477

Report phosphorylation enrichment for VSSPKYGSNDE [TMCC2_Y473_D476N] please.
0.426

Report phosphorylation enrichment for ASNFNYFYHRE [KCNA1_Y413_V408A] please.
0.428

====

biological target: SHP2-C SH2; assay: SH2 binding enrichment of the phosphorylated peptide, bacterial display (enrichment ratio); higher = better substrate or ligand; peptides without Tyr show the background
# SH2 binding enrichment per record follows
Write the number on its own, no unit after it.

Some sequences with recorded SH2 binding enrichment:
1) YSSLGYPLPEG [ZSWIM4_Y87_P89L]; 10.8
2) LGLTVYADCLA [ABCA4_Y2063]; 0.553
3) TFGQVYKGRHV [TNIK_Y40_YF]; 1.24
4) ECKEAYHEGEC [PRKN_Y372]; 0.577
5) IEEGTYGVAYR [CDK11B_Y449_V452A]; 0.662
6) FFIMMYTGSSV [DNAJC13_Y1131_N1135S]; 0.851
7) DPGVSYCTREE [PDHA1_Y301_R302C]; 0.968
8) CKQGKYLNWDA [ATM_Y54_S49C]; 1.24
9) LAARYYNWVCF [FLT4_Y1231_S1235C]; 0.752
10) HHIDFYKETTN [FGFR1_Y654_K656E_YF]; 0.933

Report SH2 binding enrichment for CDTKLYTSVPN [DNTTIP2_Y427_A430V] please.
0.48

Report SH2 binding enrichment for CRERPYGGGGG [FUS_Y526_R521C] please.
0.593

Report SH2 binding enrichment for CRPPYYHRNCM [HGD_Y334_F329C] please.
1.25

Report SH2 binding enrichment for QNTADYFDLFG [PTPN11_Y62_G60A_YF] please.
0.564

Report SH2 binding enrichment for DMLTLYVNTAA [SMCHD1_Y403_Q400L] please.
0.993

Report SH2 binding enrichment for MKNQKYGRIIM [HSD17B4_Y143_K140N] please.
1.64

Report SH2 binding enrichment for TETGRYEILTE please.
0.426

Report SH2 binding enrichment for PLGKDYRKVEG [MAP1A_Y1909_A1912V] please.
0.706

Report SH2 binding enrichment for LKLWDYRRGRC [WDR5B_Y239_S240R] please.
0.399

Report SH2 binding enrichment for VGTKRYRAPEV [ACVRL1_Y375_M376R] please.
0.861

Report SH2 binding enrichment for PQGVGYPQQQQ [EP300_Y2219_P2221Q] please.
0.835

Report SH2 binding enrichment for EMQAAYQKVVA [HBD_Y131_Q126E] please.
0.498

Report SH2 binding enrichment for CEDMEYLESKQ [BTK_Y511_A508D] please.
0.622

Report SH2 binding enrichment for GGTPLYMDRQG [AGXT_Y194] please.
0.685

Report SH2 binding enrichment for HNQDDYSFPSR [LDLR_Y845_G844D_YF] please.
0.8

Report SH2 binding enrichment for NQDRTYFESVR [SPEN_Y632_YF] please.
0.727

Report SH2 binding enrichment for IDSTPYGQWFE [RPS8_Y109_R110G_YF] please.
0.697

Report SH2 binding enrichment for SYPREYGSQEG [RBM10_Y48] please.
0.76

Report SH2 binding enrichment for EGTATYAAAVL [JUP_Y644] please.
0.722

====

biological target: SHP2-C SH2; test: SH2 binding enrichment of the phosphorylated peptide, bacterial display (enrichment ratio); higher = better substrate or ligand; peptides without Tyr show the background;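 also: peptide library displayed on the E. coli surface as eCPX fusions, selected cells deep-sequenced, score is each peptide's frequency after selection divided by its frequency in the input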
quantity: SH2 binding enrichment
Write the number on its own, no unit after it.

Some sequences with recorded SH2 binding enrichment:
1. VAMDDYLKNVM [LRRK2_Y707]; 0.648
2. SSSPTYPDLPF [GLI3_Y168]; 0.673
3. NPETCYQRLKK [TK2_Y190]; 0.739

Report SH2 binding enrichment for VHYLVYHHHHH [CACNA1H_Y519_H516Y] please.
1.45

Report SH2 binding enrichment for MAQDIYRASFF [ALK_Y1278_R1275Q_YF] please.
0.738

Report SH2 binding enrichment for KGEDFYCVTRH [FHL1_Y149_C153R] please.
0.694

Report SH2 binding enrichment for SVTFTYSPALN [TP53_Y126_C124Y_YF] please.
0.705

Report SH2 binding enrichment for LDAGEYCVPRG [BEX1_Y43] please.
0.715

Report SH2 binding enrichment for VHNLNYYKKTT [FGFR3_Y647_D646N] please.
0.746

====

tested on: c-Abl (mouse); experiment: phosphorylation enrichment, bacterial display (enrichment ratio); higher = better substrate or ligand; peptides without Tyr show the background
# phosphorylation enrichment per record follows
Write the number on its own, no unit after it.

Some sequences with recorded phosphorylation enrichment:
1. TYVVLYDAELT [ERCC4_Y581_R576T]; 0.67
2. GDKKAYVRLAP [RPL23A_Y137_E133D]; 0.519
3. LEVETYRRLLD [KRT12_Y429_I426V]; 0.551
4. CPASVYTKRCS [CPT2_Y508_R503C]; 0.442
5. HTLIKYTDGDQ [PUS7L_Y94]; 1.35

Report phosphorylation enrichment for ADARMYGVHPW [PLP1_Y207_L210H] please.
0.53

Report phosphorylation enrichment for NTGGFYDLFGG [PTPN11_Y63_D61G_YF] please.
0.836

Report phosphorylation enrichment for CTLNVYRQLHN [LUZP1_Y1036_S1034N] please.
0.739

Report phosphorylation enrichment for RFLRGYQQDAY [HLA-A_Y137_R138Q] please.
0.843

====

molecular target: EPHB2 (UniProt P29323); test: phosphorylation enrichment, bacterial display (enrichment ratio); higher = better substrate or ligand; peptides without Tyr show the background
Sequence (P29323 whole entry, looked up): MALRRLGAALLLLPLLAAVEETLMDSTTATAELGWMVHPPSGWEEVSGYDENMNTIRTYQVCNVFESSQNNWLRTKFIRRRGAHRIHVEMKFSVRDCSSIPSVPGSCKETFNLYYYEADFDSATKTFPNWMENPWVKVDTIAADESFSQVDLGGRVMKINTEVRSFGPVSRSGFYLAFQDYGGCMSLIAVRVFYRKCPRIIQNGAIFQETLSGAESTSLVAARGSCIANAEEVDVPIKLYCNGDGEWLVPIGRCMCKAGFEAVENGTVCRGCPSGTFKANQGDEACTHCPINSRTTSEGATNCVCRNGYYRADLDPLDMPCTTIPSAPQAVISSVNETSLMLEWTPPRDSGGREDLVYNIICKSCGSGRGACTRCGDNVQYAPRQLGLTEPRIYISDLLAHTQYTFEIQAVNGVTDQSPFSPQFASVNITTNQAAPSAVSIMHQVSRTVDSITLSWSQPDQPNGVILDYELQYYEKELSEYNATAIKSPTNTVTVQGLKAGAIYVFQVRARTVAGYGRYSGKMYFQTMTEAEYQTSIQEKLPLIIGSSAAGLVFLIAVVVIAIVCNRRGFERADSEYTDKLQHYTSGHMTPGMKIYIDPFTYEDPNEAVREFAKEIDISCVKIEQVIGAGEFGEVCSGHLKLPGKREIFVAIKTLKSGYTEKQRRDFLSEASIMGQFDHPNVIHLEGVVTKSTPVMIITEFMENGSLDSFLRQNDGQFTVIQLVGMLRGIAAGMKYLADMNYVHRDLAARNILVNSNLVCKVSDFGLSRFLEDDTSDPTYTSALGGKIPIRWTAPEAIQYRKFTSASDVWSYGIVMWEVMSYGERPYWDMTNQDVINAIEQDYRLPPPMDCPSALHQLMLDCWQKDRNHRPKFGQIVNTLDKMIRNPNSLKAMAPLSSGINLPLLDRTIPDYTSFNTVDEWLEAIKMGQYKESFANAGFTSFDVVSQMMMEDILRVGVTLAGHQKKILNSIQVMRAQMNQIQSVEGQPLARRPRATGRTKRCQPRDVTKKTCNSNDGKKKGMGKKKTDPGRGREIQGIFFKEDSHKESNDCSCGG
Field: class. Source value: phosphorylation enrichment. Ranges: low group: < 0.5; middle group: ≥ 0.5 and < 1; high group: ≥ 1

Known results for sequences:
1) RDVEQYVNNVN [PCDH19_Y1097_L1094V]; middle group
2) TLKDVCDDGKF [RPS6KA3_Y483_Y483C_YF]; middle group
3) LEPHIYAVADV [MYO9A_Y216]; high group
4) FLNSIYQSRDE [ROS1_Y2227_K2228Q]; low group
5) ETESPYQELQG [TYROBP_Y91]; middle group

Lab note: which band did IEEGTYGVVYR [CDK11B_Y449] land in?
high group

Lab note: which band did HHTDEYEFDEL [TGM1_Y134_YF] land in?
middle group

Lab note: which band did IGEGTYGVLYK [CDK2_Y15_V18L] land in?
high group

Lab note: which band did TRVMEYISCLD [CLTCL1_Y1043_R1046C] land in?
middle group

Lab note: which band did SENYTYIWWLN [PSG4_Y271_K267E] land in?
high group

Lab note: which band did FFSSEYHCVGG [CTSC_Y345_Y347C_YF] land in?
high group

Lab note: which band did FFIMMYTGSSV [DNAJC13_Y1131_N1135S] land in?
low group

====

test system: AncSZ; assay: phosphorylation enrichment, bacterial display (enrichment ratio); higher = better substrate or ligand; peptides without Tyr show the background
quantity: phosphorylation enrichment
Write the number on its own, no unit after it.

1) ALAHKYHGGGG [HBB_Y146]; 0.621
2) NTGLDYIKFTW [HRH1_Y386]; 1.37
3) HDRNTYEKYLG [TF_Y666]; 2.4
4) WNRDKYAATTT [TRIM39_Y439_G436R]; 0.734
5) FEREQYADRTR [RBM4_Y355_A359T_YF]; 0.625

Report phosphorylation enrichment for GKTQQYDCKWF [BCR_Y751_YF] please.
0.848

Report phosphorylation enrichment for KFEDVYVGICL [B3GALNT1_Y269] please.
1.37

Report phosphorylation enrichment for FQLPFYNTVPS [BMPR1A_Y458_M460T_YF] please.
0.748

Report phosphorylation enrichment for VKMLPYTEVTR [GDI1_Y93_L92P] please.
0.555

Report phosphorylation enrichment for LASLIYNFILF [AQP6_Y231_V234I] please.
2.67

Report phosphorylation enrichment for PQGVGYPPQQQ [EP300_Y2219] please.
0.962

Report phosphorylation enrichment for ADYPDCKYRPR [SOX11_Y116_Y116C] please.
0.733

Report phosphorylation enrichment for ILGLEYSLRLP [HELZ2_Y1304_V1308L] please.
1.37
